Test: MTT cytotoxicity / cell viability in CHIKV replicon cells
Conditions: hamster, BHK-21-GLuc-nsP-CHIKV-99659 cells (CHIKV replicon cells)
# label = Criterion met if viability at 10 µM < 90% else Criterion not met

INSERT INTO assay_data (molecule, category_label) VALUES
  ('C[C@@H](c1nc(-c2ccc(C#N)cc2)cs1)[C@](O)(Cn1cncn1)c1cc(F)ccc1F', 'Criterion not met'),
  ('CC(=O)N1CCN(c2ccc(OCC3COC(Cn4ccnc4)(c4ccc(Cl)cc4Cl)O3)cc2)CC1 (stereo not shown)', 'Criterion not met'),
  ('Clc1ccc(COC(Cn2ccnc2)c2ccc(Cl)cc2Cl)c(Cl)c1 (stereo not shown)', 'Criterion not met'),
  ('Clc1ccc(COC(Cn2ccnc2)c2ccc(Cl)cc2Cl)cc1 (stereo not shown)', 'Criterion met'),
  ('C[C@@H](c1nc(-c2ccc(C#N)cc2)cs1)[C@](O)(Cn1cncn1)c1ccc(F)cc1F', 'Criterion not met'),
  ('Clc1ccc(C(Cn2ccnc2)OCc2ccsc2Cl)c(Cl)c1 (stereo not shown)', 'Criterion met'),
  ('CC[C@@H]([C@H](C)O)n1ncn(-c2ccc(N3CCN(c4ccc(OC[C@@H]5CO[C@@](Cn6cncn6)(c6ccc(F)cc6F)C5)cc4)CC3)cc2)c1=O', 'Criterion not met'),
  ('Clc1ccccc1C(c1ccccc1)(c1ccccc1)n1ccnc1', 'Criterion met'),
  ('OC(Cn1cncn1)(Cn1cncn1)c1ccc(F)cc1F', 'Criterion not met');

###

Test system: CHIKV-nanoluc
Test: Viral infection assay with CHIKV-nanoluc in BHK-21 cells
Format: cell-based, Chikungunya virus
Conditions: Chikungunya virus, MOI 0.1, 16 h.p.i., read-out: EC50 (CHIKV-nanoluc replication)
pEC50: −log10 of the molar value.
Readout Name: pEC50

INSERT INTO results (molecule, measured) VALUES
  ('CCC(C)n1ncn(-c2ccc(N3CCN(c4ccc(OCC5COC(Cn6cncn6)(c6ccc(Cl)cc6Cl)O5)cc4)CC3)cc2)c1=O (centres unmarked)', 6.47),
  ('CC[C@@]1(O)C(=O)OCc2c1cc1n(c2=O)Cc2cc3c([N+](=O)[O-])cccc3nc2-1', 5.44);

###

Measured SI (CC50/EC50), listed per entry for reference.
Test system: CHIKV replicon
Test: CHIKV replicon-based assay (GLuc activity in BHK-21-GLuc-nsP-CHIKV-99659 cells)
Conditions: replicon-based assay
Readout Name: SI (CC50/EC50)

INSERT INTO assay_data (molecule, censor_symbol, measured) VALUES
  ('C[C@H](C(N)=O)N1CCCC[C@@H]1c1ccc(OCc2cccc(F)c2)cc1', '=', 10),
  ('O=C(N[C@@H]1CCCc2c1[nH]c1ccc(Cl)cc21)c1ccccn1', '=', 30),
  ('CC[C@@]1(O)C(=O)OCc2c1cc1n(c2=O)Cc2cc3c([N+](=O)[O-])cccc3nc2-1', '>', 714),
  ('CCC(C)n1ncn(-c2ccc(N3CCN(c4ccc(OCC5COC(Cn6cncn6)(c6ccc(Cl)cc6Cl)O5)cc4)CC3)cc2)c1=O (stereo not shown)', '>', 312);

###

Assay: MTT cytotoxicity / cell viability in CHIKV replicon cells
Details: hamster, BHK-21-GLuc-nsP-CHIKV-99659 cells (CHIKV replicon cells)
Measured CC50 at 48 h, listed per entry for reference.
Readout Name: CC50 at 48 h

INSERT INTO measurements (compound, measured) VALUES
  ('Cc1ccc(C(=O)Nc2ccc(S(=O)(=O)O)c3cc(S(=O)(=O)O)cc(S(=O)(=O)O)c23)cc1NC(=O)c1cccc(NC(=O)Nc2cccc(C(=O)Nc3cc(C(=O)Nc4ccc(S(=O)(=O)O)c5cc(S(=O)(=O)O)cc(S(=O)(=O)O)c45)ccc3C)c2)c1 [suramin]', '> 50 µM'),
  ('CCC(C)n1ncn(-c2ccc(N3CCN(c4ccc(OCC5COC(Cn6cncn6)(c6ccc(Cl)cc6Cl)O5)cc4)CC3)cc2)c1=O (stereo not drawn) [Itraconazole, itraconazole]', '> 100 µM'),
  ('CC[C@@]1(O)C(=O)OCc2c1cc1n(c2=O)Cc2cc3c([N+](=O)[O-])cccc3nc2-1 [Rubitecan, rubitecan]', '> 100 µM');

###

Measured CC50, listed per entry for reference.
System: BHK-21-GLuc-nsP-CHIKV-99659 cells
Experiment: MTT cytotoxicity / cell viability in CHIKV replicon cells
Conditions: read-out: CC50 (50% cytotoxicity); CHIKV replicon cells, 48 h, MTT assay
Readout Name: CC50 (µM)

INSERT INTO measurements (line_notation, system_tested, readout_name, unit_symbol, measured) VALUES
  ('O=C(N[C@@H]1CCCc2c1[nH]c1ccc(Cl)cc21)c1ccccn1', 'BHK-21-GLuc-nsP-CHIKV-99659 cells', 'CC50', 'µM', 10),
  ('C[C@H](C(N)=O)N1CCCC[C@@H]1c1ccc(OCc2cccc(F)c2)cc1', 'BHK-21-GLuc-nsP-CHIKV-99659 cells', 'CC50', 'µM', 52);

###

Measured EC50, listed per entry for reference.
Tested on: CHIKV replicon
Assay: CHIKV replicon-based assay (GLuc activity in BHK-21-GLuc-nsP-CHIKV-99659 cells)
Conditions: read-out: EC50 (concentration required to inhibit 50% of the GLuc activity); CHIKV replicon cells, 48 h, GLuc signal from supernatant
Readout Name: EC50

INSERT INTO assay_data (compound, readout_name, measured) VALUES
  ('C[C@H](C(N)=O)N1CCCC[C@@H]1c1ccc(OCc2cccc(F)c2)cc1 [MMV676270]', 'EC50', '5200 nM'),
  ('O=C(N[C@@H]1CCCc2c1[nH]c1ccc(Cl)cc21)c1ccccn1 [GSK-983]', 'EC50', '330 nM');

###

Measured CC50 at 16 h, listed per entry for reference.
Test: Cell viability in the viral infection assay
Assay type: cell-based
Conditions: hamster, BHK-21 cells infected with CHIKV-nanoluc
Readout Name: CC50 at 16 h

INSERT INTO measurements (compound, readout_name, measured) VALUES
  ('CCC(C)n1ncn(-c2ccc(N3CCN(c4ccc(OCC5COC(Cn6cncn6)(c6ccc(Cl)cc6Cl)O5)cc4)CC3)cc2)c1=O (centres unmarked)', 'CC50 at 16 h', '> 100 µM'),
  ('CC[C@@]1(O)C(=O)OCc2c1cc1n(c2=O)Cc2cc3c([N+](=O)[O-])cccc3nc2-1', 'CC50 at 16 h', '> 100 µM');
